Test system: MDR1 (P-gp)
Assay: Efflux ratio of permeability in MDCK-MDR1 cells
Assay type: ADME, cell-based, Canis lupus familiaris
Settings: dog
metric_name: efflux ratio

| smiles_structure | metric_name | readout_number |
| --- | --- | --- |
| Cn1nc(C2CC2)c2ccc(Nc3n[nH]c4cccnc34)cc21 | efflux ratio | 1.2 |

---

Assay: Drug uptake in rat brain at 10 mg/kg, po after 1 hr
Type: ADME, organism-based
Conditions: read-out: Drug uptake
metric_name: concentration at 1 h

| smiles_structure | metric_name | result |
| --- | --- | --- |
| Cn1nc(C2CC2)c2ccc(Nc3n[nH]c4cccnc34)cc21 | concentration at 1 h | 816 ng/g |

---

Entries with their measured pIC50, system UniProtKB P05177:
pIC50: −log10 of the molar value.
metric_name: pIC50

| smiles_structure | metric_name | readout_number |
| --- | --- | --- |
| Cn1nc(C2CC2)c2ccc(Nc3n[nH]c4ncccc34)cc21 | pIC50 | 5.59 |
| c1cnc2c(Nc3ccc4c(C5CC5)n[nH]c4c3)n[nH]c2c1 | pIC50 | 6.55 |

---

Listed compounds paired with reported fraction unbound
Assay: Fraction unbound in rat plasma
Type: ADME, cell-free

| smiles_structure | fraction unbound |
| --- | --- |
| Cn1nc(C2CC2)c2ccc(Nc3n[nH]c4ncccc34)cc21 | 0.031 |
| c1cnc2c(Nc3ccc4c(C5CC5)n[nH]c4c3)n[nH]c2c1 | 0.014 |
| Cn1ncc2cc(Nc3n[nH]c4cccnc34)ccc21 | 0.127 |
| Cc1nn(C)c2cc(Nc3n[nH]c4cccnc34)ccc12 | 0.089 |
| Fc1ccc(Nc2n[nH]c3cccnc23)cc1Cl | 0.028 |
| Cn1nc(C2CC2)c2ccc(Nc3n[nH]c4nccnc34)cc21 | 0.035 |
| Cn1nc(C2CC2)c2ccc(Nc3n[nH]c4cccnc34)cc21 | 0.024 |
| Cn1ncc2ccc(Nc3n[nH]c4cccnc34)cc21 | 0.061 |

---

Target: UniProtKB Q14833
Sequence (Q14833 whole entry): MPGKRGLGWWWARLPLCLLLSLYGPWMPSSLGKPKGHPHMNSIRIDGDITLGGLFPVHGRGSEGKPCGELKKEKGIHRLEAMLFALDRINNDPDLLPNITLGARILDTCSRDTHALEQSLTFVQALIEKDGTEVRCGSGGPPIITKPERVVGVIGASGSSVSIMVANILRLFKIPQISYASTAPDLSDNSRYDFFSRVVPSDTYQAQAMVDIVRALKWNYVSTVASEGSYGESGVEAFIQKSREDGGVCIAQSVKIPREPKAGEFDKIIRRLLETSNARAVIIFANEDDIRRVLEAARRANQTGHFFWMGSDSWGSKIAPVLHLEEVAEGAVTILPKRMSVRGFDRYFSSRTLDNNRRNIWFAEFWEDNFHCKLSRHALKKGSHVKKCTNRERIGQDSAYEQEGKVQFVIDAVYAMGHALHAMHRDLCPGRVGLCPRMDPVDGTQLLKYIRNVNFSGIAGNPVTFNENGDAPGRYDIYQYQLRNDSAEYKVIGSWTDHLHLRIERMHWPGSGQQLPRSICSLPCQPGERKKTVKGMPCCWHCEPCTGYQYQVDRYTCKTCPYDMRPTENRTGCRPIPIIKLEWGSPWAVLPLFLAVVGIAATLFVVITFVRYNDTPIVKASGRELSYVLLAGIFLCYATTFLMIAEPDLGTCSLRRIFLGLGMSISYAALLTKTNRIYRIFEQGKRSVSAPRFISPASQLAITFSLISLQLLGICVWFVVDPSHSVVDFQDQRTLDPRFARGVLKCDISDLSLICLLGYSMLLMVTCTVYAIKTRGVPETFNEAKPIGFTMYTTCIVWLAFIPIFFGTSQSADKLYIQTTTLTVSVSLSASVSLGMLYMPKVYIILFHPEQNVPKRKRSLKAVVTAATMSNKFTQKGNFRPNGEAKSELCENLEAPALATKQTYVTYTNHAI
Test: Positive allosteric modulation of human mGluR4 expressed in CHO cells co-expressing Gqi5 assessed as increase in glutamate-induced calcium flux at 30 uM preincubated for 2.5 mins followed by glutamate addition by Fluo-4-AM dye based fluorescence assay relative to PHCCC
Assay type: functional, cell-based
Listed molecules paired with reported Emax
metric_name: Emax (%)

| molecule | study_target | metric_name | unit_of_measurement | readout_number |
| --- | --- | --- | --- | --- |
| CCn1nc(C2CC2)c2ccc(Nc3n[nH]c4cccnc34)cc21 | UniProtKB Q14833 | Emax | % | 36.2 |
| Cn1nc(C(=O)NC2CC(F)(F)C2)c2ccc(Nc3n[nH]c4cccnc34)cc21 | UniProtKB Q14833 | Emax | % | 52.2 |
| CN1CCC(Oc2nn(C)c3cc(Nc4n[nH]c5cccnc45)ccc23)CC1 | UniProtKB Q14833 | Emax | % | 88.3 |
| Cn1nc(C(=O)NC2CCC2)c2ccc(Nc3n[nH]c4cccnc34)cc21 | UniProtKB Q14833 | Emax | % | 70.3 |
| Cn1nc(C2(C)CC2)c2ccc(Nc3n[nH]c4ncccc34)cc21 | UniProtKB Q14833 | Emax | % | 84 |
| Cn1nc(C(=O)N2CC[C@H](F)C2)c2ccc(Nc3n[nH]c4cccnc34)cc21 | UniProtKB Q14833 | Emax | % | 55.5 |
| Cn1nc(C(=O)N2CC[C@@H](F)C2)c2ccc(Nc3n[nH]c4cccnc34)cc21 | UniProtKB Q14833 | Emax | % | 41.9 |
| Cn1nc(C(F)(F)F)c2ccc(Nc3n[nH]c4cccnc34)cc21 | UniProtKB Q14833 | Emax | % | 77.5 |
| Cn1nc(C2CC2)c2ncc(Nc3n[nH]c4cccnc34)cc21 | UniProtKB Q14833 | Emax | % | 75 |
| c1cnc2c(Nc3ccc4c(C5CC5)n[nH]c4c3)n[nH]c2c1 | UniProtKB Q14833 | Emax | % | 76.5 |
| Cn1nc(C2(C)CC2)c2ccc(Nc3n[nH]c4cccnc34)cc21 | UniProtKB Q14833 | Emax | % | 83.7 |
| Cc1nn(CC2CCC2)c2ccc(Nc3n[nH]c4cccnc34)cc12 | UniProtKB Q14833 | Emax | % | 93.2 |
| Cc1nn(C)c2cc(Nc3n[nH]c4cccnc34)ccc12 | UniProtKB Q14833 | Emax | % | 98 |
| CC(C)Oc1nn(C)c2cc(Nc3n[nH]c4cccnc34)ccc12 | UniProtKB Q14833 | Emax | % | 70.9 |
| CC(C)COc1nn(C)c2cc(Nc3n[nH]c4cccnc34)ccc12 | UniProtKB Q14833 | Emax | % | 86.7 |
| CCc1nn(C)c2cc(Nc3n[nH]c4cccnc34)ccc12 | UniProtKB Q14833 | Emax | % | 94.5 |
| Cn1nc(C2CC2)c2ccc(Nc3n[nH]c4ncccc34)cc21 | UniProtKB Q14833 | Emax | % | 94.8 |
| Cn1nnc2ccc(Nc3n[nH]c4cccnc34)cc21 | UniProtKB Q14833 | Emax | % | 72.4 |
| Cc1nn(C(C)C)c2cc(Nc3n[nH]c4cccnc34)ccc12 | UniProtKB Q14833 | Emax | % | 62 |
| Cn1nc(OC2CCOCC2)c2ccc(Nc3n[nH]c4cccnc34)cc21 | UniProtKB Q14833 | Emax | % | 85.1 |
| Cc1nn(C2CCCC2)c2ccc(Nc3n[nH]c4cccnc34)cc12 | UniProtKB Q14833 | Emax | % | 93.8 |
| CCn1nc(Cl)c2cc(Nc3n[nH]c4cccnc34)ccc21 | UniProtKB Q14833 | Emax | % | 67 |
| Cn1nc(CC(F)(F)F)c2ccc(Nc3n[nH]c4cccnc34)cc21 | UniProtKB Q14833 | Emax | % | 62.7 |
| Cn1ncc2cc(Nc3n[nH]c4cccnc34)ccc21 | UniProtKB Q14833 | Emax | % | 110 |
| CCn1nc(C)c2cc(Nc3n[nH]c4cccnc34)ccc21 | UniProtKB Q14833 | Emax | % | 78.3 |
| Cn1ncc2ccc(Nc3n[nH]c4cccnc34)cc21 | UniProtKB Q14833 | Emax | % | 105 |
| Cn1cnc2ccc(Nc3n[nH]c4cccnc34)cc21 | UniProtKB Q14833 | Emax | % | 54.6 |
| Cn1nc(C2(C)CC2)c2ccc(Nc3n[nH]c4nccnc34)cc21 | UniProtKB Q14833 | Emax | % | 94.8 |
| Cn1nc(C2CC2)c2ccc(Nc3n[nH]c4nccnc34)cc21 | UniProtKB Q14833 | Emax | % | 101 |
| Cn1nc(C2CC2)c2ccc(Nc3n[nH]c4cccnc34)cc21 | UniProtKB Q14833 | Emax | % | 88.7 |
| Cn1nc(C(=O)N2CCC(F)(F)C2)c2ccc(Nc3n[nH]c4cccnc34)cc21 | UniProtKB Q14833 | Emax | % | 57.8 |
| Cn1nc(C(=O)N2CCCC2)c2ccc(Nc3n[nH]c4cccnc34)cc21 | UniProtKB Q14833 | Emax | % | 41.6 |
| Cn1nc(C(=O)NC2CC(F)C2)c2ccc(Nc3n[nH]c4cccnc34)cc21 (stereo not drawn) | UniProtKB Q14833 | Emax | % | 74 |
| Cc1cc(COc2nn(C)c3cc(Nc4n[nH]c5cccnc45)ccc23)on1 | UniProtKB Q14833 | Emax | % | 107 |
| Cn1nc(OCC2CCCCO2)c2ccc(Nc3n[nH]c4cccnc34)cc21 (stereo not drawn) | UniProtKB Q14833 | Emax | % | 100 |
| Cc1nn(C)c2ccc(Nc3n[nH]c4cccnc34)cc12 | UniProtKB Q14833 | Emax | % | 105 |
| Cn1nc(C(=O)N2CCC(F)(F)CC2)c2ccc(Nc3n[nH]c4cccnc34)cc21 | UniProtKB Q14833 | Emax | % | 89.5 |
| Cn1ccc2cc(Nc3n[nH]c4cccnc34)ccc21 | UniProtKB Q14833 | Emax | % | 83.8 |

---

Assay: Clearance in rat liver microsomes
Format: ADME, microsome
Listed compounds paired with reported CLhep predicted

| smiles_structure | CLhep predicted (mL/min/kg) |
| --- | --- |
| Cn1nc(C2CC2)c2ccc(Nc3n[nH]c4ncccc34)cc21 | 16.1 |
| Cn1nc(C2CC2)c2ccc(Nc3n[nH]c4nccnc34)cc21 | 22.4 |
| Cc1nn(C)c2cc(Nc3n[nH]c4cccnc34)ccc12 | 18.6 |
| Cn1ncc2ccc(Nc3n[nH]c4cccnc34)cc21 | 10.7 |
| Fc1ccc(Nc2n[nH]c3cccnc23)cc1Cl | 12.1 |
| Cn1nc(C2CC2)c2ccc(Nc3n[nH]c4cccnc34)cc21 | 21.5 |
| Cn1ncc2cc(Nc3n[nH]c4cccnc34)ccc21 | 40.1 |
| c1cnc2c(Nc3ccc4c(C5CC5)n[nH]c4c3)n[nH]c2c1 | 30.8 |
